- TEST_TARGET: T1, purified interference factor(s), Donor A
- T1 construct: also called interference in serum from Donor A
- EXPERIMENT: SPR, interference factor immobilized
ASSAY_READOUT: % of binding of reference (=100%)
Provide the reading as a plain figure in %.

These solved cases illustrate the format of a correct answer.
| BINDER | UNITS_LABEL | % of binding of reference (=100%) |
| --- | --- | --- |
| SEQ ID NO: 42 (VHH, Ex. 8) EVQLVESGGGLVQPGGSLRLSCAASGRTFSYNPMGWFRQAPGKGRELVAAISRTGGSTYYPDSVEGRFTISRDNAKRMVYLQMNSLRAEDTAVYYCAAAGVRAEDGRVRTLPSEYTFWGQGTQVTVSSAAAEVQLVESGGGLVQPGGSLRLSCAASGRTFSYNPMGWFRQAPGKGRELVAAISRTGGSTYYPDSVEGRFTISRDNAKRMVYLQMNSLRAEDTAVYYCAAAGVRAEDGRVRTLPSEYTFWGQGTQVTVSSA | % | 1 |
| SEQ ID NO: 48 (VHH, Ex. 8) VHH: EVQLVESGGGLVQPGGSLRLSCIASGLPFSTKSMGWFRQAPGKEREFVARISPGGTSRYYGDFVKGRFAISRDNAKNTTWLQMNSLKAEDTAVYYCASGERSTYIGSNYYRTNEYDYWGTGTQVTVSS | % | 0 |

For the next question, use this binder.
## Input Given SEQ ID NO: 70 (VHH, Ex. 8) VHH: EVQLVESGGGLVQPGGSLRLSCAASRSIGRLDRMGWYRHRPGEPRELVATITGGSSINYGDSVKGRFTISIDNSKNTVYLQMNSLRPEDTAVYYCNFNKYVTSRDTWGQGTLVQVSS , state its recorded % of binding of reference (=100%).
## Output 90
